- method: Pharmacokinetics of regorafenib in plasma of freely moving rats with or without RT (HPLC-UV)
- Format: in vivo, Sprague-Dawley rats
- applied_conditions: male, Sprague-Dawley, rat, plasma, po, 16 mg/kg, rat plasma; RT9 Gy × 1 f'x with regorafenib 16 mg/kg p.o. × 1 d (concurrent); read-out: t½
measure: half-life (h)
Give bare numbers, in h.

// query Please look up its half-life: CNC(=O)c1cc(Oc2ccc(NC(=O)Nc3ccc(Cl)c(C(F)(F)F)c3)c(F)c2)ccn1 [regorafenib, Regorafenib]
// result 10.9

====

- method: Organ distribution of regorafenib in rats with or without RT
- Assay type: in vivo, Sprague-Dawley rats
- applied_conditions: Sprague-Dawley, rat, brain, oral, 16 mg/kg, rat, 4 h after oral administration; RT9 Gy × 1 f'x with regorafenib 16 mg/kg × 1 d (concurrent); read-out: Concentration in brain
measure: concentration at 4 h (ng/g)
Numbers only, in ng/g.

// query Please look up its concentration at 4 h: CNC(=O)c1cc(Oc2ccc(NC(=O)Nc3ccc(Cl)c(C(F)(F)F)c3)c(F)c2)ccn1 [regorafenib, Regorafenib]
// result 10

====

- method: Organ distribution of regorafenib in rats with or without RT
- Format: in vivo, Sprague-Dawley rats
- applied_conditions: Sprague-Dawley, rat, heart, oral, 16 mg/kg, rat, 4 h after oral administration; RT2 Gy × 3 f'x followed by regorafenib 16 mg/kg × 3 d (sequential); read-out: Concentration in heart
measure: concentration at 4 h (ng/g)
Numbers only, in ng/g.

// query Please look up its concentration at 4 h: `CNC(=O)c1cc(Oc2ccc(NC(=O)Nc3ccc(Cl)c(C(F)(F)F)c3)c(F)c2)ccn1`
// result 290

====

- method: Organ distribution of regorafenib in rats with or without RT
- Type: in vivo, Sprague-Dawley rats
- applied_conditions: male, Sprague-Dawley, rat, spleen, po, 16 mg/kg, rat, 4 h after oral administration; 16 mg/kg p.o. × 3 d, no RT; read-out: Concentration in spleen
measure: concentration at 4 h (ng/g)
Answers are plain numbers, in ng/g.

// query Please look up its concentration at 4 h: CNC(=O)c1cc(Oc2ccc(NC(=O)Nc3ccc(Cl)c(C(F)(F)F)c3)c(F)c2)ccn1 [regorafenib, Regorafenib]
// result 380

====

- method: Organ distribution of regorafenib in rats with or without RT
- Type: in vivo, Sprague-Dawley rats
- applied_conditions: male, Sprague-Dawley, rat, liver, po, 16 mg/kg, rat, 4 h after oral administration; 16 mg/kg p.o. × 1 d, no RT; read-out: Concentration in liver
measure: concentration at 4 h (ng/g)
Give bare numbers, in ng/g.

// query Please look up its concentration at 4 h: `CNC(=O)c1cc(Oc2ccc(NC(=O)Nc3ccc(Cl)c(C(F)(F)F)c3)c(F)c2)ccn1`
// result 1460

====

- method: Organ distribution of regorafenib in rats with or without RT
- Format: in vivo, Sprague-Dawley rats
- applied_conditions: male, Sprague-Dawley, rat, brain, oral, 16 mg/kg, rat, 4 h after oral administration; RT9 Gy × 3 f'x followed by regorafenib 16 mg/kg × 3 d (sequential); read-out: Concentration in brain
- Experimental: According to the formula used to translate doses from animal to human, human equivalent dose (HED, mg/kg) = animal dose (mg/kg) × animal km/human km, we calculated the daily dose of regorafenib for rats to be 16 (mg/kg/day). The rats were randomly divided into ten groups with six rats in each group. […] The organ samples were homogenized in 50% aqueous acetonitrile (sample weight: volume = 1:5) and centrifuged at 13,000× g, for 10 min, at 4 °C. […] Finally, the filtrate (20 μL) was analyzed by HPLC.
measure: concentration at 4 h (ng/g)
One number for each entry, in ng/g.

// query Please look up its concentration at 4 h: `CNC(=O)c1cc(Oc2ccc(NC(=O)Nc3ccc(Cl)c(C(F)(F)F)c3)c(F)c2)ccn1`
// result 40

Reference for the values: paper PMC8035703
